target: GK (glucokinase, residues 12-465) (Homo sapiens); construct: I.D. No. 1 corresponds to residues 12-465 of glucokinase; made in house; host or cells: DH10b-T1r E. coli; test: enzymatic glucokinase activity assay (ATP consumption, KinaseGlo luminescence); format: biochemical; details: calculated maximal gain in GK enzyme activity at a saturating concentration of the compound; 5 μM ATP, 5 mM Glucose; reported as bins; read-out: % ACTmax
QUANTITY_NAME: Emax

Input: Please tell me: Emax of Cn1ccc(NC(=O)[C@H](CC2CCOCC2)n2ncc3c(S(=O)(=O)C4CC4)cc(C#N)cc32)n1 , system GK (glucokinase, residues 12-465) (Homo sapiens)?
Output: ≤ 90%

Input: One more compound: Nc1cc(S(=O)(=O)C2CC2)c2cnn(C(CC3CCOCC3)C(=O)Nc3ncc(F)s3)c2c1 (stereo not shown)
Output: 101 to 105%

Input: One more compound: COc1ccc2nc(NC(=O)C(CC3CCOCC3)n3cc(S(=O)(=O)C4CC4)cn3)sc2n1 (stereo not shown)
Output: ≤ 90%

Input: One more compound: Cc1cc(NC(=O)C(CC2CCOCC2)n2ncc3c(S(=O)(=O)C4CC4)cccc32)nn1C (stereo not shown)
Output: ≥ 111%

* * *

molecular target: GK (glucokinase, residues 12-465) (Homo sapiens, UniProt P35557); construct: I.D. No. 1 corresponds to residues 12-465 of glucokinase; assay: enzymatic glucokinase activity assay (ATP consumption, KinaseGlo luminescence); settings: Kact = concentration that displays 50% of the maximal increase in GK activity; 5 μM ATP, 5 mM Glucose, 60 min, room temperature; reported as bins; read-out: pKact
Sequence (P35557 with tags, fused parts or gaps isoform P35557-2): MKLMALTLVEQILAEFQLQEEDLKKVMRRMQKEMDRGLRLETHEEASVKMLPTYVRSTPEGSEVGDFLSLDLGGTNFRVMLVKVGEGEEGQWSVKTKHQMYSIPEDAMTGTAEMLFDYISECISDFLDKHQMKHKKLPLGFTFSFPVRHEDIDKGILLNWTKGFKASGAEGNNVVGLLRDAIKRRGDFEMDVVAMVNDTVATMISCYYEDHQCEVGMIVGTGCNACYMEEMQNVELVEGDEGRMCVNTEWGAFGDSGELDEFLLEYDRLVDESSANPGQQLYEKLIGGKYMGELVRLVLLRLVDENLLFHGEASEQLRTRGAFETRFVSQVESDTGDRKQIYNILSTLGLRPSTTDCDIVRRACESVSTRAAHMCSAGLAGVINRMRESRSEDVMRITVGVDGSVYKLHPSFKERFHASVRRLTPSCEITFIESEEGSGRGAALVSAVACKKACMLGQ
pEC50: −log10 of the molar value.
QUANTITY_NAME: pEC50

Input: Please tell me: pEC50 of COC(=O)c1cnc(NC(=O)C(CC2CCCC2)n2cc(S(=O)(=O)C3CC3)cn2)s1 (stereo not shown) [Compound 6] , system GK (glucokinase, residues 12-465) (Homo sapiens, UniProt P35557)?
Output: 4.90 to 5.40

Input: One more compound: COc1cc(S(=O)(=O)C2CC2)c2cn(C(CC3CCOCC3)C(=O)Nc3ncc(F)s3)nc2c1 (stereo not shown) [Compound 73]
Output: ≤ 4.80

Input: One more compound: CS(=O)(=O)c1cccc2c1cnn2C(CC1CCOCC1)C(=O)Nc1ncc(F)s1 (stereo not shown) [Compound 41]
Output: 5.50 to 5.80

Input: One more compound: Cn1ccc(NC(=O)[C@@H](CC2CCOCC2)n2ncc3c(S(=O)(=O)C4CC4)cc(C#N)cc32)n1 [Compound 106]
Output: ≤ 4.80

* * *

Biological target: GK (glucokinase, residues 12-465) (Homo sapiens)
Construct: I.D. No. 1 corresponds to residues 12-465 of glucokinase
Assay: enzymatic glucokinase activity assay (ATP consumption, KinaseGlo luminescence)
Conditions: Kact = concentration that displays 50% of the maximal increase in GK activity; 5 μM ATP, 5 mM Glucose, 60 min, room temperature; reported as bins; read-out: pKact
From the text: The activity of compounds as glucokinase activators may be assayed in vitro, in vivo or in a cell line. Provided below is an enzymatic glucokinase activity assay. Purified glucokinase may be obtained as follows. […] SEQ. […] Recombinant protein may be isolated from cellular extracts by passage over Sepharose Q Fast Flow resin (Pharmacia). […] The purity of GK may be determined on denaturing SDS-PAGE gel. […]
Where a name gives a salt, the structure may show the parent alone.
QUANTITY_NAME: EC50

Input: # EC50 lookup, item COc1ccc2nc(NC(=O)[C@@H](CC3CCOCC3)n3ccc(S(=O)(=O)C4CC4)n3)sc2n1 [Compound 3]
Output: ≥ 15.8 µM

Input: One more compound: O=C1CC[C@H](C[C@H](C(=O)Nc2ncc(F)s2)n2cc(S(=O)(=O)C3CC3)cn2)C1 [Compound 56]
Output: ≥ 15.8 µM

Input: One more compound: O=C(Nc1ncc(F)s1)C(CC1CCOCC1)n1ncc2c(S(=O)(=O)C3CC3)c(Br)ccc21 (stereo not drawn) [Compound 150]
Output: 0.398 to 1.26 µM

Input: One more compound: Nc1cc(S(=O)(=O)C2CC2)c2cnn([C@H](CC3CCOCC3)C(=O)Nc3ncc(F)s3)c2n1 [Compound 111]
Output: 0.398 to 1.26 µM

Input: One more compound: O=C(Nc1ncc(F)s1)C(CC1CCOCC1)n1cc(S(=O)(=O)c2ccc(Cl)cc2)cn1 (stereo not drawn) [Compound 29]
Output: 0.398 to 1.26 µM

Input: One more compound: COc1cc(S(=O)(=O)C2CC2)c2cnn([C@H](CC3CCOCC3)C(=O)Nc3ncc(F)s3)c2c1 [Compound 129]
Output: 3.98 to 12.6 µM

Input: One more compound: Cn1ccc(NC(=O)[C@@H](CC2CCOCC2)n2ncc3c(S(=O)(=O)C4CC4)ccnc32)n1 [Compound 99]
Output: 3.98 to 12.6 µM

Input: One more compound: O=C(Nc1ncc(F)s1)[C@@H](CC1CCOCC1)n1ncc2c(S(=O)(=O)C3CC3)cc(O)cc21 [Compound 77]
Output: ≥ 15.8 µM

Input: One more compound: O=C(Nc1ncc(F)s1)C(CC1CCOCC1)n1ncc2c(S(=O)(=O)C3CC3)c(OC(F)F)ccc21 (stereo not drawn) [Compound 87]
Output: 1.58 to 3.16 µM

Input: One more compound: COc1cc(S(=O)(=O)C2CC2)c2cnn(C(CC3CCOCC3)C(=O)Nc3cnccn3)c2c1 (stereo not drawn) [Compound 92]
Output: 3.98 to 12.6 µM

Input: One more compound: O=C(Nc1cnccn1)C(CC1CCOCC1)n1ncc2c(S(=O)(=O)C3CC3)cncc21 (stereo not drawn) [20 (TFA Salt)]
Output: 1.58 to 3.16 µM

Input: One more compound: Cc1cc(S(=O)(=O)C2CC2)c2cnn(C(CC3CCOCC3)C(=O)Nc3ncc(F)s3)c2c1 (stereo not drawn) [Compound 122]
Output: 3.98 to 12.6 µM

Input: One more compound: O=C(Nc1cnccn1)C(CC1CCOCC1)n1ncc2c(S(=O)(=O)C3CC3)cc(Cl)cc21 (stereo not drawn) [Compound 102]
Output: 0.398 to 1.26 µM

Input: One more compound: Cn1ccc(NC(=O)[C@@H](CC2CCOCC2)n2ncc3c(S(=O)(=O)C4CC4)c(F)ccc32)n1 [Compound 166]
Output: 3.98 to 12.6 µM

Input: One more compound: Cn1ccc(NC(=O)[C@H](CC2CCOCC2)n2ncc3c(S(=O)(=O)C4CC4)ccnc32)n1 [Compound 98]
Output: 0.398 to 1.26 µM

Input: One more compound: O=C1CC[C@H](C[C@H](C(=O)Nc2ncc(F)s2)n2ncc3c(S(=O)(=O)C4CC4)cc(Cl)cc32)C1 [Compound 78]
Output: 1.58 to 3.16 µM

Input: One more compound: CC(C)(C)S(=O)(=O)c1cnn(C(CC2CCOCC2)C(=O)Nc2ncc(F)s2)c1 (stereo not drawn) [Compound 49]
Output: 3.98 to 12.6 µM

Input: One more compound: O=C(Nc1cnccn1)C(CC1CCOCC1)n1ncc2c(S(=O)(=O)C3CC3)ccnc21 (stereo not drawn) [Compound 97]
Output: 0.398 to 1.26 µM

Input: One more compound: O=C(Nc1ncc(Cl)s1)[C@H](CC1CCOCC1)n1ncc2cc(S(=O)(=O)C3CC3)ccc21 [Compound 48]
Output: 0.398 to 1.26 µM

Input: One more compound: Nc1cc(S(=O)(=O)C2CC2)c2cnn([C@H](CC3CCOCC3)C(=O)Nc3cnccn3)c2n1 [Compound 163]
Output: 1.58 to 3.16 µM

Input: One more compound: O=C(Nc1ncc(Cl)s1)[C@@H](CC1CCOCC1)n1cc(S(=O)(=O)C2CC2)cn1 [Compound 40]
Output: ≥ 15.8 µM

Input: One more compound: O=C(Nc1ncc(F)s1)C(CC1CCOCC1)n1ncc2c(S(=O)(=O)C3CC3)cccc21 (stereo not drawn) [Compound 66]
Output: ≤ 0.316 µM

Input: One more compound: O=C1CC[C@H](CC(C(=O)Nc2cnccn2)n2ncc3c(S(=O)(=O)C4CC4)cccc32)C1 (stereo partly drawn) [Compound 71]
Output: 1.58 to 3.16 µM

Input: One more compound: O=C(Nc1ncc(F)s1)C(CC1CCOCC1)n1ncc2c(S(=O)(=O)C3CC3)cc(F)cc21 (stereo not drawn) [Compound 115]
Output: ≤ 0.316 µM

Input: One more compound: O=C(Nc1cnccn1)C(CC1CCOCC1)n1cc2c(S(=O)(=O)C3CC3)cc(Cl)cc2n1 (stereo not drawn) [Compound 168]
Output: ≥ 15.8 µM

Input: One more compound: O=C(Nc1ncc(F)s1)C(CC1CCOCC1)n1cc(S(=O)(=O)C2CC2)cn1 (stereo not drawn) [Compound 28]
Output: 3.98 to 12.6 µM

Input: One more compound: Cn1ccc(NC(=O)C(CC2CCOCC2)n2ncc3c(S(=O)(=O)C4CC4)cc(F)cc32)n1 (stereo not drawn) [Compound 104]
Output: 1.58 to 3.16 µM

Input: One more compound: COc1ccc2c(cnn2[C@H](CC2CCOCC2)C(=O)Nc2cnccn2)c1S(=O)(=O)C1CC1 [Compound 93]
Output: ≥ 15.8 µM

Input: One more compound: O=C(Nc1cnccn1)C(CC1CCOCC1)n1cc2c(S(=O)(=O)C3CC3)cncc2n1 (stereo not drawn) [Compound 169]
Output: ≥ 15.8 µM

Input: One more compound: O=C(Nc1ncc(F)s1)[C@@H](CC1CCOCC1)n1cc(S(=O)(=O)C2CCCC2)cn1 (single isomer, unassigned) [Compound 37]
Output: 1.58 to 3.16 µM
